Values were extracted from PubChem BioAssay AID1259407.

- Test system: CCRIS mutagenicity, Ames/micronucleus/aberration tests
- test method notes: CCRIS mutagenicity studies
- setup conditions: Test System: AMES SALMONELLA TYPHIMURIUM; Strain/Indicator: TA97; Metabolic Activation: NONE; Method: PREINCUBATION
The source made the active and inactive calls. How the calls were made is not given here.
Outcomes: active, inactive

Cc1ccc(N)cc1; inactive
CN(C)P(=O)(N(C)C)N(C)C; inactive
O=C1C(Cl)=C(Cl)C(=O)c2ccccc21; inactive
COc1cc(-c2ccc(N/N=C3\C=C(S(=O)(=O)O)c4ccccc4C3=O)c(OC)c2)ccc1N=Nc1cc(S(=O)(=O)O)c2ccccc2c1N; inactive
O.O.O.O.O.O.O=[N+]([O-])[O-].O=[N+]([O-])[O-].O=[N+]([O-])[O-].[La+3]; inactive
FC(F)(F)c1cccc(Cl)c1; inactive
CCCCCCCCCc1ccc(O)cc1; inactive
CNNCc1ccc(C(=O)NC(C)C)cc1; inactive
COc1cc(NC(C)CCCN)c2ncccc2c1 (configuration not stated); active
O=c1ccn([C@@H]2O[C@H](COP(=O)(O)O)[C@@H](O)[C@H]2O)c(=O)[nH]1; inactive
CC(Cl)Cl; inactive
CC(=O)c1c(C)c([N+](=O)[O-])c(C(C)(C)C)c([N+](=O)[O-])c1C; inactive
OC[P+](CO)(CO)CO; inactive
Oc1cccc(Nc2ccccc2)c1; inactive
CCCCC(C=O)CC (configuration not stated); inactive
CS(=O)(=O)c1ccc(O)c(N)c1; inactive
O=Nc1ccc(O)cc1; inactive
O=CNc1ccccc1; inactive
O=c1c2[nH]c3ccccc3c2nnn1/N=C/c1ccc(Cl)cc1; inactive
CC(C)c1ccccc1OP(=O)(Oc1ccccc1)Oc1ccccc1; inactive
COC(=O)NC(=S)Nc1ccccc1NC(=S)NC(=O)OC; inactive
C=C(C)/C([O-])=N/[N+](C)(C)CC(C)O (configuration not stated); inactive
Cc1c(C)c2c(Cl)c3ccccc3nc2c2ccccc12; active
Nc1cc(Cl)cc(S(=O)(=O)O)c1O; inactive
CC(C#N)CCC#N (configuration not stated); inactive
C1=C\CC/C=C\CC/1.C1=C\CC/C=C\CC/1.[Ni]; inactive
O=C1O[C@H]([C@@H](O)CO)C(O)=C1O; inactive

* * *

- System: CCRIS mutagenicity, Ames/micronucleus/aberration tests
- test method notes: CCRIS mutagenicity studies
- setup conditions: Test System: AMES SALMONELLA TYPHIMURIUM; Strain/Indicator: TA100; Metabolic Activation: RAT LIVER S-9, PHENOBARBITAL AND 5,6-BENZOFLAVONE; Method: PREINCUBATION
Active and inactive are the calls of the source. How the calls were made is not given here.
Outcomes: active, inactive

Fc1cccc2cccnc12; active
Fc1c(F)c(F)c2ncccc2c1F; active
CNCc1ccc(CSCCNC(=NCC(O)c2ccc(O)cc2)NS(C)(=O)=O)o1 (stereo unspecified); inactive
CCCCCN(CCCOC)C(=O)C(CCC(=O)O)NC(=O)c1ccc(Cl)c(Cl)c1 (stereo unspecified); inactive
Fc1cc2cccnc2c(F)c1F; inactive
Fc1ccc2ncccc2c1; active

* * *

- Tested on: CCRIS mutagenicity, Ames/micronucleus/aberration tests
- test method notes: CCRIS mutagenicity studies
- setup conditions: Test System: MOUSE LYMPHOMA; Strain/Indicator: L5178Y (TK+/TK-); Metabolic Activation: RAT, LIVER, S-9, AROCLOR 1254; Method: SUSPENSION/PLATE
- Description: The CCRIS database contains chemical records with carcinogenicity, mutagenicity, tumor promotion, and tumor inhibition test results. It was developed by the National Cancer Institute (NCI). Data are derived from studies cited in primary journals, current awareness tools, NCI reports, and other sources. Test results have been reviewed by experts in carcinogenesis and mutagenesis. CCRIS provides historical information from the years 1985 - 2011. It is no longer updated. […]
The source made the active and inactive calls. How the calls were made is not given here.
assay readout: mutagenic call

COc1cc(CNC(=O)CCCC/C=C/C(C)C)ccc1O; active; positive
Nc1ccc(S(N)(=O)=O)cc1; inactive; negative
Nc1nc(-c2ccccc2)c(Br)c(=O)[nH]1; inactive; negative
O=c1[nH]c(=O)n([C@H]2C[C@H](O)[C@@H](CO)O2)cc1/C=C/Br; inactive; negative
c1cc2ccc3cccc4ccc(c1)c2c34; active; positive
COS(C)(=O)=O; active; positive
CCn1cc(C(=O)O)c(=O)c2ccc(C)nc21; inactive; negative
Nc1cccc2cc3ccccc3cc12; active; positive
O=C(O)c1cc(O)c2c(c1)C(=O)c1cccc(O)c1C2=O; inactive; negative
CC/C=C/C=C/C=C/C=C/C=C/OC[C@@H](O)CO; active; positive
C1=Cc2c3c1cccc3cc1ccc3ccccc3c21; active; positive
OCc1ccccc1; inactive; negative
CI; active; positive
BrCCBr; active; positive
ClC=C(Cl)Cl; active; positive
ClC(Cl)=C(Cl)Cl; inactive; negative
COC(C)(C)C; active; positive

* * *

- Tested on: CCRIS mutagenicity, Ames/micronucleus/aberration tests
- test method notes: CCRIS mutagenicity studies
- setup conditions: Test System: AMES SALMONELLA TYPHIMURIUM; Strain/Indicator: TA100; Metabolic Activation: RAT LIVER S-9, PHENOBARBITAL AND BETA-NAPHTHOFLAVONE; Method: PREINCUBATION
Active and inactive are the calls of the source. The rule behind the calls is not given here.
Outcomes: class 1 (active), class 0 (inactive)

CC(CO)(CO)CO; class 0
NC(=Nc1ccccc1)Nc1ccccc1; class 0
CC(C)c1ccccc1O; class 0
O=[N+]([O-])c1cc(Cl)ccc1Cl; class 1
Cc1nc(N)nc(N)n1; class 0
BrCCCCCBr; class 0
O.O.O.O.O.[Cd+2].[Cd+2].[Cl-].[Cl-].[Cl-].[Cl-]; class 0
Cc1ccccc1S(N)(=O)=O; class 0
Cc1cc(-c2ccc(N=C=O)c(C)c2)ccc1N=C=O; class 0
Cc1ccc(Cl)cc1; class 0
NC(N)=S; class 0
[B-]; class 0
Cc1ccccn1; class 0
N=C(N)S(=O)O; class 0
Cc1ccc(N)cc1; class 0
O=C(O)c1ccc2c(c1)C(=O)OC2=O; class 0
NCCCCCCCCCCCC(=O)O; class 0
CC(C)(c1ccc(O)cc1)c1ccc(O)cc1; class 0
O=C1C(Cl)=C(Cl)C(=O)c2ccccc21; class 0
OCCOCCOCCO; class 0
O=S(=O)(c1ccc(O)cc1)c1ccc(O)cc1; class 0
CCCC(=O)O; class 0
CCOCCOC(C)=O; class 0

* * *

- Tested on: CCRIS mutagenicity, Ames/micronucleus/aberration tests
- test method notes: CCRIS mutagenicity studies
- setup conditions: Test System: Ames Salmonella typhimurium; Strain/Indicator: TA100; Metabolic Activation: None; Method: Preincubation
Activity calls are given as the source filed them. No rule for the calls is given here.
Outcomes: active, inactive

C=CC(=C)CCC=C(C)C; inactive
Cc1cc(S(=O)(=O)O)c(N)cc1Cl; inactive
CN=c1ccc2nc3ccc(N)cc3sc-2c1; active
O=c1c2ccccc2c(=O)c2c1cc(Cl)c1[nH]c3c([nH]c12)c(Cl)cc1c(=O)c2ccccc2c(=O)c13; inactive
C1=C\CC/C=C\CC/1.C1=C\CC/C=C\CC/1.[Ni]; inactive
ClC(Cl)(Cl)c1nc(-c2ccc3c(c2)OCO3)nc(C(Cl)(Cl)Cl)n1; active

* * *

- Tested on: CCRIS mutagenicity, Ames/micronucleus/aberration tests
- test method notes: CCRIS mutagenicity studies
- setup conditions: Test System: AMES SALMONELLA TYPHIMURIUM; Strain/Indicator: TA98; Metabolic Activation: RAT, LIVER, S-9, PCB; Method: STANDARD PLATE
The source made the active and inactive calls. No rule for the calls is given here.
Outcomes: active, inactive

c1ccc2c(c1)ccc1ccccc12; inactive
c1cc2ccc3cccc4ccc(c1)c2c34; active
COc1ccc2cc([C@H](C)C(=O)O)ccc2c1; inactive
F; inactive

* * *

- Tested on: CCRIS mutagenicity, Ames/micronucleus/aberration tests
- test method notes: CCRIS mutagenicity studies
- setup conditions: Test System: AMES SALMONELLA TYPHIMURIUM; Strain/Indicator: TA1537; Metabolic Activation: RAT, LIVER, S-9, AROCLOR 1254; Method: STANDARD PLATE
Calls of active or inactive are those of the source. The rule behind the calls is not given here.
Outcomes: 1 (yes) = active, 0 (no) = inactive

CC(C)CCCCCCOC(=O)CCCCC(=O)OCCCCCCC(C)C; 0 (no)
COc1cc(CNC(=O)CCCC/C=C/C(C)C)ccc1O; 0 (no)
Cc1ccc(S(=O)(=O)n2ncc(Cl)c(Cl)c2=O)cc1; 0 (no)
Nc1ccc2c(c1)C(=O)c1ccccc1C2=O; 1 (yes)
CCCCOC(=O)CC(CC(=O)OCCCC)(OC(C)=O)C(=O)OCCCC; 0 (no)
CC(=O)N1CCC[C@H]1C(=O)N(CC(=O)O)N=O; 0 (no)

* * *

- Test system: CCRIS mutagenicity, Ames/micronucleus/aberration tests
- test method notes: CCRIS mutagenicity studies
- setup conditions: Test System: AMES SALMONELLA TYPHIMURIUM; Strain/Indicator: TA97; Metabolic Activation: NONE; Method: PREINCUBATION
Activity calls are given as the source filed them. The rule behind the calls is not given here.
Outcomes: 1.0 (active), 0.0 (inactive)

CCN(CC)CCCC(C)Nc1cc(OC)cc2cccnc12 (centres undefined); 0.0
COC(=O)C(Cl)CCC(Cl)CCCCCC(Cl)CCC(Cl)CCCCCl (centres undefined); 0.0
Cc1occc(=O)c1O; 0.0
CNC(=O)c1ccccc1; 0.0
C=O; 0.0
Nc1ccc(NCCO)c([N+](=O)[O-])c1; 1.0
CCN=C=S; 0.0
O=[N+]([O-])c1cccc(O)c1; 0.0
O=C1C=Cc2ccccc2C1=O; 1.0
O=C(O)Cc1ccc(O)c(O)c1; 0.0
COc1ccc(CCC(=O)c2c(O)cc(O[C@@H]3O[C@H](CO)[C@@H](O)[C@H](O)[C@H]3O[C@@H]3O[C@@H](C)[C@H](O)[C@@H](O)[C@H]3O)cc2O)cc1O; 0.0
CCCCCC; 0.0
O=[N+]([O-])CCO; 0.0
O[C@@H]1[C@@H]2O[C@@H]2C=C[C@H]1O; 0.0
